Biological target: T1, full-length human TIGIT on CHO-K1 cells (CHO-K1 human TIGIT) (human, UniProt Q495A1 22-244)
T1 construct: NCBI XP_024309156.1; entry includes the signal peptide; also called high expression strain 1D2; medium expression strain 2D10
T1 sequence: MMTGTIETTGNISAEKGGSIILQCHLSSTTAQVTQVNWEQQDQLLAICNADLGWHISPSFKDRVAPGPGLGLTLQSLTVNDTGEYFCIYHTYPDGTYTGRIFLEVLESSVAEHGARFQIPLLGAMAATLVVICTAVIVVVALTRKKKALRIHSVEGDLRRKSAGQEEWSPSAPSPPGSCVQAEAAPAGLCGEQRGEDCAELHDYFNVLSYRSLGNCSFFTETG
Assay: FACS, low expression strain
Reported values of pEC50 for individual entries
Please treat pEC50 as minus the base-10 logarithm of the molar concentration.

Example results:
- Binder: "TIGIT-CHI-006 (antibody, V domains shown, human-mouse chimeric antibody) VH: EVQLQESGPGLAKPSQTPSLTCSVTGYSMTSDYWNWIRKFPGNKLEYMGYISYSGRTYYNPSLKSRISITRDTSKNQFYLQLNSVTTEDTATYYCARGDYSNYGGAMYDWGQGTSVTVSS VL: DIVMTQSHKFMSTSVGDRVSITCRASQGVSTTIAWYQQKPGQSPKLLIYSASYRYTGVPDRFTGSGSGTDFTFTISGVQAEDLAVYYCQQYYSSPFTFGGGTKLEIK"
  Outcome Measure: "pEC50"
  Value Reported: 9.48
- Binder: "TIGIT-CHI-002 (antibody, V domains shown, human-mouse chimeric antibody) VH: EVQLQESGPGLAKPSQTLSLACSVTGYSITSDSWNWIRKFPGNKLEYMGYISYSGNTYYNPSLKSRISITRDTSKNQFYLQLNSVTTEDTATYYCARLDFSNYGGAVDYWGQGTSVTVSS VL: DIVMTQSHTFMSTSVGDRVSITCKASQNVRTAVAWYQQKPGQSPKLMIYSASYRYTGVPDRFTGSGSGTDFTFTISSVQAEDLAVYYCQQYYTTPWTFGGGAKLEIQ"
  Outcome Measure: "pEC50"
  Value Reported: 9.66
- Binder: "TIGIT-CHI-070 (antibody, V domains shown, human-mouse chimeric antibody) VH: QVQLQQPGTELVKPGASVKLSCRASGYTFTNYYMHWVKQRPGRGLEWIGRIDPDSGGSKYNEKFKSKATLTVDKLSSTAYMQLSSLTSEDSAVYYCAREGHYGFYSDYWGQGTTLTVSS VL: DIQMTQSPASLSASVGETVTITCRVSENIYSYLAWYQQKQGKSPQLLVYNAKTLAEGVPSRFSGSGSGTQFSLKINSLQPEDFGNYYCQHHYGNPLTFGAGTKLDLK"
  Outcome Measure: "pEC50"
  Value Reported: 9.45

**Query** Answer with the recorded pEC50 of TIGIT-CHI-005 (antibody, V domains shown, human-mouse chimeric antibody) VH: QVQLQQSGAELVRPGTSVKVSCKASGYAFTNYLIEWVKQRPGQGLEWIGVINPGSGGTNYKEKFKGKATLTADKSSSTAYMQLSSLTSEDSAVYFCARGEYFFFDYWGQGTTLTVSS VL: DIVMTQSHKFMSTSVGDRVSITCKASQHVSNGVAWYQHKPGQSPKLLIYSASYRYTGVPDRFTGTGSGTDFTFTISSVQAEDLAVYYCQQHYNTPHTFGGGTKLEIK only.
**Result** 9.64
